B1: WDR41 (parent)
chain: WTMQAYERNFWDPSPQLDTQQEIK

Variants of: B1
method description: protein stability index of a GFP-peptide fusion (GPS, HEK-293T) (PSI 1-6); higher = more stable;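 further: lentivirally expressed fusions sorted by FACS into six bins by GFP to DsRed ratio, PSI derived from sequencing read proportions per bin multiplied by bin number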
setup conditions: c terminus: a fixed tail appended
Class 1: protein stability index at least 3. Class -1: protein stability index below 3.

variant_designation=Q21I qualitative_label=-1
variant_designation=R8C qualitative_label=-1
variant_designation=D12F qualitative_label=1
variant_designation=A5R qualitative_label=1
variant_designation=E22I qualitative_label=-1
variant_designation=M3I qualitative_label=-1
variant_designation=S14Y qualitative_label=-1
variant_designation=R8P qualitative_label=1
variant_designation=S14V qualitative_label=-1
variant_designation=I23C qualitative_label=-1
variant_designation=P15F qualitative_label=-1
variant_designation=Q21H qualitative_label=-1
variant_designation=P13N qualitative_label=-1
variant_designation=L17W qualitative_label=-1
variant_designation=F10M qualitative_label=1
variant_designation=F10G qualitative_label=1
variant_designation=Q4C qualitative_label=-1
variant_designation=N9S qualitative_label=-1
variant_designation=W1N qualitative_label=1
variant_designation=K24P qualitative_label=-1
variant_designation=R8S qualitative_label=1
variant_designation=P13G qualitative_label=-1
variant_designation=I23V qualitative_label=-1
variant_designation=Q21A qualitative_label=-1
variant_designation=R8W qualitative_label=-1
variant_designation=E7H qualitative_label=-1
variant_designation=T2S qualitative_label=-1
variant_designation=R8F qualitative_label=-1
variant_designation=W1V qualitative_label=1
variant_designation=Y6C qualitative_label=-1
variant_designation=A5C qualitative_label=-1
variant_designation=D18M qualitative_label=-1
variant_designation=Q4Y qualitative_label=-1
variant_designation=Q21W qualitative_label=-1
variant_designation=K24Q qualitative_label=-1
variant_designation=F10K qualitative_label=1
variant_designation=W11L qualitative_label=1
variant_designation=I23H qualitative_label=-1
variant_designation=Y6T qualitative_label=-1
variant_designation=T19W qualitative_label=-1
variant_designation=L17G qualitative_label=1
variant_designation=T2E qualitative_label=1
variant_designation=E22Y qualitative_label=-1
variant_designation=F10H qualitative_label=1
